methodNotes: NCI Yeast Anticancer Drug Screen. Data for the cln2 rad14 strain (AID 165);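 also: 0% = growth equal to vehicle treated cultures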
conditionDetails: S. cerevisiae cln2 rad14 strain, at 50.0 µM, stronger effect = higher value
Compounds without any hit were thinned out: in the full panel of roughly 79,000, 15% have a hit. Where a SMILES comes first, the peptide text is derived from it. The star is where a group is joined. Boc = CC(C)(C)OC(=O)*; OcHex = C1CCC(O*)CC1
Entries and their measured growth inhibition follow.
Answer in %, number only, no unit symbol.

{"compound": "Cc1cccc(C(N)=O)c1", "measure": "growth inhibition", "recordedNumber": -4.75}
{"compound": "CC(C)CC(NC(=O)OC(C)(C)C)C(=O)NC(CCC(=O)OC1CCCCC1)C(N)=O (stereo not drawn) (Boc-Leu-Glu(OcHex)-NH2; configuration not given here)", "measure": "growth inhibition", "recordedNumber": 1.5}
{"compound": "CCCCCNC(=O)c1csc(-c2csc(CCNC(C)=O)n2)n1", "measure": "growth inhibition", "recordedNumber": -26.1}
{"compound": "O=c1ccc2c(O)cc(O)cc2o1", "measure": "growth inhibition", "recordedNumber": 5.05}
{"compound": "N#CCC(=O)N/N=C(\\C(=O)Nc1ccc(Cl)c(Cl)c1)C1CN(c2ccccc2)N=C1N (configuration not stated)", "measure": "growth inhibition", "recordedNumber": -44.4}
{"compound": "NS(=O)(=O)c1ccccc1", "measure": "growth inhibition", "recordedNumber": -28.4}
{"compound": "CCN(CC)c1ccc(NC(C)=O)c(C)c1", "measure": "growth inhibition", "recordedNumber": -15.8}
{"compound": "C[n+]1ccccc1/C=C/c1ccc2c(c1)OCO2", "measure": "growth inhibition", "recordedNumber": -0.45}

Measured growth inhibition, c1ccc(OC23CC4CC(CC(C4)C2)C3)cc1 : 42.8

Measured growth inhibition, CC(C)(C)OC(=O)N1CCCC1C(=O)Oc1ccc([N+](=O)[O-])cc1 (configuration not stated) : 3.55

Measured growth inhibition, O=C(NC1(C(=O)O)CC1c1ccccc1)c1ccccc1 (configuration not stated) : -10.2

Measured growth inhibition, O=S(=O)(CCl)Nc1ccncc1 : -77.2

----------
Entries and their measured growth inhibition follow.
methodNotes: NCI Yeast Anticancer Drug Screen. Data for the sgs1 mgt1 strain (AID 161);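 also: 0% = growth of cultures given vehicle only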
conditionDetails: S. cerevisiae sgs1 mgt1 strain, at 50.0 µM, stronger effect = higher value
This is part of a sample that, as a whole, favours compounds with a hit. Of some 79,000 tested, about 15% had one in any assay.
Answer in %, number only, no unit symbol.

// worked examples, growth inhibition included
{"compound": "C=CCC(OC(C)=O)c1cccc(OC)c1OC (centres undefined)", "recordedNumber": -9.45}
{"compound": "C(=C\\c1cc(-c2cc(/C=C/c3ccccc3)[nH]n2)n[nH]1)/c1ccccc1", "recordedNumber": -14.3}
{"compound": "CC1=C(C(=O)Nc2ccc([N+](=O)[O-])cc2)C(c2ccco2)C(C(=O)Nc2ccc([N+](=O)[O-])cc2)=C(C)N1", "recordedNumber": 34.4}
{"compound": "O=[N+]([O-])/C(C(Cl)=C(Cl)Cl)=C(/Cl)Sc1ccccc1", "recordedNumber": 85.7}
{"compound": "Cc1cccc(C)c1NC(=O)C(=O)CC(=O)/C=C/c1ccccc1", "recordedNumber": -30.6}
{"compound": "[Br][Pt+2][Br].[NH-]c1cccc(F)c1.[NH-]c1cccc(F)c1", "recordedNumber": 39.4}

Measured growth inhibition, CC(=O)NCC1(c2ccccc2)CCN(CC2COc3ccccc3O2)CC1 (centres undefined) : -15.2

Measured growth inhibition, CCCCCCC(C)C(CC)(C(=O)OCC)C(=O)OCC (centres undefined) : -0.2

Measured growth inhibition, Cc1c(Cl)c2ccc(N(C)C)cc2[nH]c1=O : -0.1

Measured growth inhibition, CCCCCCCCn1c(N)c(C#N)cnc1=S : -3.45

Measured growth inhibition, C=C(C)CC(O)CCCCC (centres undefined) : 19.7

----------
methodNotes: NCI Yeast Anticancer Drug Screen. Data for the mlh1 rad18 strain (AID 175)
conditionDetails: S. cerevisiae mlh1 rad18 strain growth inhibition; at 50.0 µM; stronger effect = higher value
The panel holds about 79,000 compounds, 15% with a hit somewhere; the sample as a whole holds those more often.
Entries and their measured growth inhibition follow.
Answer in %, number only, no unit symbol.

// worked examples, growth inhibition included
{"compound": "CCN(CC)CCSC(=O)c1ccc([N+](=O)[O-])cc1", "measure": "growth inhibition", "recordedNumber": 8.1}
{"compound": "O=NN(Cc1ccccc1)c1ccc(OCc2ccccc2)c(NC(=O)CCC2OCCO2)c1", "measure": "growth inhibition", "recordedNumber": 9.5}
{"compound": "O=C(O)CCc1ccc(O)c(O)c1", "measure": "growth inhibition", "recordedNumber": -21.8}
{"compound": "CC(C)OC(=O)Nc1cccc(C(=O)O)c1", "measure": "growth inhibition", "recordedNumber": -0.85}

# ---- query compound ----
Measured growth inhibition, CC(=O)OC1C(C)OC(OC(=O)C2CCC3C(C2)OC2(CC(OC(=O)/C=C/c4ccccc4)C(C)CO2)C32CO2)C(OC2OC(C)C(O)C(O)C2O)C1O (stereo not given) : -62.9

----------
methodNotes: NCI Yeast Anticancer Drug Screen. Data for the bub3 strain (AID 167)
conditionDetails: S. cerevisiae bub3 mutant strain, at 50.0 µM, stronger effect = higher value
The panel holds about 79,000 compounds, 15% with a hit somewhere; the sample as a whole holds those more often.
Entries and their measured growth inhibition follow.
Answer in %, number only, no unit symbol.

// worked examples, growth inhibition included
{"compound": "NCCC(=O)NCCSSCCNC(=O)CCN", "measure": "growth inhibition", "recordedNumber": 6.8}
{"compound": "O=C1c2ccccc2C(=O)C2C3c4ccccc4C(c4ccccc43)C12 (stereo unspecified)", "measure": "growth inhibition", "recordedNumber": -54.7}
{"compound": "COc1ccc(NC(=O)CCc2cc(C(C)(C)C)n[nH]2)cc1", "measure": "growth inhibition", "recordedNumber": -16.7}
{"compound": "Cc1ccc2nc(C)ccc2c1", "measure": "growth inhibition", "recordedNumber": -0.2}
{"compound": "Nc1nc(N)nc(CNc2c(Br)cc(Br)cc2Br)n1", "measure": "growth inhibition", "recordedNumber": -10.2}

Measured growth inhibition, C1CCC(C2CCCC[N-]2)[N-]C1.C1CCC(C2CCCC[N-]2)[N-]C1.[Cl][Ru][Cl] (stereo unspecified) : -0.75

Measured growth inhibition, CCOC(=O)NC(=O)c1cn(CCN2CCN(C(=O)CCCCCCCCCCC(=O)N3CCN(CCn4cc(C(=O)NC(=O)OCC)c(=O)[nH]c4=O)CC3)CC2)c(=O)[nH]c1=O : -3.45

Measured growth inhibition, C1=CCOCOC1 : -8.95

----------
methodNotes: NCI Yeast Anticancer Drug Screen. Data for the cln2 rad14 strain (AID 165);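 also: 0% = growth equal to vehicle treated cultures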
conditionDetails: S. cerevisiae cln2 rad14 strain, at 50.0 µM, stronger effect = higher value
Description: Growth inhibition of yeast strains with defined genetic alterations is measured as a screen for potential anti-cancer activity. Selected strains with alterations in DNA damage repair or cell cycle control were exposed to compounds and growth inhibition was measured relative to vehicle treated controls. The strain used in this assay is cln2 rad14
About 79,000 compounds went through this panel and 15% of them were active in at least one assay; those are over-represented in the sample as a whole.
Entries and their measured growth inhibition follow.
Answer in %, number only, no unit symbol.

// worked examples, growth inhibition included
{"compound": "COc1ccc(C2C3=C(CCCC3=O)OC3=C2C(=O)CCC3)cc1", "growth inhibition [%]": -17.2}
{"compound": "O/N=C1\\CCC2CCCCC12 (centres undefined)", "growth inhibition [%]": 19.1}
{"compound": "NC(=O)Cc1ccncc1", "growth inhibition [%]": -9.9}
{"compound": "CC1=NN(C(=O)c2ccc(Cl)cc2)C(=O)/C1=C/c1ccccc1O", "growth inhibition [%]": -7.55}
{"compound": "CCOC(=O)CCC(NC(=O)c1ccc(Nc2nc3cc(C(F)(F)F)ccc3nc2C(=O)OCC)cc1)C(=O)OCC (centres undefined)", "growth inhibition [%]": -1.85}
{"compound": "CC(=O)OC1CCC2(C)C(CCC3C2CCC2(C)C(c4cccc(=O)o4)CCC32)C1 (centres undefined)", "growth inhibition [%]": 14.8}
{"compound": "COC(=O)C(=O)c1c2ccccc2n2ccc3c4ccccc4[nH]c3c12", "growth inhibition [%]": 10.1}
{"compound": "CC1(C)OC2C(O1)[C@H]1OC(C(Cl)(Cl)Cl)=N[C@H]1C(I)[C@H]2N1C(=O)c2ccccc2C1=O (some centres undefined)", "growth inhibition [%]": -52.6}
{"compound": "COc1ccc(/C=C2\\CCC(CCN(C)C)(C3=CCCC3)C2=O)cc1 (centres undefined)", "growth inhibition [%]": 18.1}
{"compound": "O=C(O)/C=C/c1cnc[nH]1", "growth inhibition [%]": 11.9}

Measured growth inhibition, Cc1cc(=O)oc2c1c(C)nn2-c1cccc(Cl)c1 : -60.9

Measured growth inhibition, COc1ccc(Cl)cc1NC(C)=O : 7.25

Measured growth inhibition, FC(F)(F)c1cc(Nc2nc(-c3ccccc3)nc3c2C(=NCc2ccco2)OC3=NCc2ccco2)ccc1Cl : -6.35
